switch fluorescence ratio reference
Test system: ATP;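 also: ATP exposure 15 min at 22 °C before imaging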
Test Description: switch fluorescence ratio, 500 uM ATP over buffer (Cy3 cluster intensity, sum of 5 cycles each) (fold (ratio)); higher = stronger signal-on switching upon ATP binding; sequences stand for … in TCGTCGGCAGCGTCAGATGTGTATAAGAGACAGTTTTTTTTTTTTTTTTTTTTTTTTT…TC
Experimental Parameters: aptamer strand: ATP DNA aptamer (quencher-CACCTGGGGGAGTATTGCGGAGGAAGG + anchor), 100 nM annealed; ATP concentration: 500 uM
Quantity Measured: switch fluorescence ratio

- CCTCCAGGTT: 3.69
- AGAGGGAGTA: 1
- ATTGGAGTAG: 1.01
- ATTGATGACT: 1.04
- GAATGGGACA: 1.13
- GATTGAGGTC: 0.989
- CGAGTGGATG: 0.994
- TTTAAATCGG: 0.979
- CTCTGAGCGG: 1.03
- GGGTGGGGAA: 0.963
- TTTATCACGT: 0.975
- AATTATAATG: 1.03
- CTTTGGGTTT: 0.981
- AAAGAAAAAA: 1.01
- TTGGGTGTAG: 1.04
- TGGTTCGTCT: 0.955
- ATAGTTTAGG: 1.02
- GAGTTGTGTA: 0.985
- TTAGCCAGCT: 0.97
- AGTAACAGCC: 1
- ACTGGAAGTG: 1.03
- GCGGGGTTAT: 1.03
- TTTGGTTGCC: 1.05
- ATAGATATAG: 1.03

src = the supplement of paper PMC10126150
